The reader will find reported Hill coefficient (Hill slope) values listed item by item below.
biological target: A. baumannii ATP synthase (Acinetobacter baumannii, UniProt A3M139); construct: endogenous electron transport chains of inverted inner membrane vesicles were energized with NADH; endogenous in cells; host or cells: inverted inner membrane vesicles prepared from A. baumannii ATCC 17978 cells; assay: AB ATP synthase inhibition: NADH-driven ATP synthesis in inverted inner membrane vesicles, luciferin/luciferase readout; format: biochemical; conditions: fit of ATP synthesis dose response curve
Sequence (A3M139 whole entry): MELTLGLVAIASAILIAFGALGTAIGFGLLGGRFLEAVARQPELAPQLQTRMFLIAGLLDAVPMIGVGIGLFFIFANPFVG
The response must contain the number and no unit.

Field: example entries. Status: answers known.
| chemical structure | Hill coefficient (Hill slope) |
| --- | --- |
| Fc1ccc(-c2cnc(SCc3ccccc3)c(CNCc3ccc(CN4CCCC4)cc3)c2)cc1 | -0.8 |
| Brc1cnc(SCc2ccccc2)c(CNCCC2CCN(C3CCCC3)CC2)c1 | -0.5 |
| c1ccc(CSc2ncccc2CNCc2ccc(CN3CCCC3)cc2)cc1 | -0.7 |
| COc1ccc(-c2cnc(SCc3ccccc3)c(CNCCN3CCN(C)CC3)c2)cc1F | -0.7 |

## Task Using the record for `Brc1cnc(SCc2ccccc2)c(CNCc2ccc(CN3CCCC3)cc2)c1` , report its Hill coefficient (Hill slope).
## Result -1.2

## Task Using the record for `CCN1CCC(CCNCc2cc(-c3ccc(F)cc3F)cnc2SCc2ccccc2)CC1` , report its Hill coefficient (Hill slope).
## Result -0.9

## Task Using the record for `COc1ccc(-c2cnc(SCc3ccccc3)c(CNCc3ccc(CN4CCCC4)cc3)c2)cc1F` , report its Hill coefficient (Hill slope).
## Result -0.8

## Task Using the record for `CN1CCN(CCNCc2cc(-c3ccc(F)cc3)cnc2SCc2ccccc2)CC1` , report its Hill coefficient (Hill slope).
## Result -0.8
